Reported pIC50 values are given for each entry in this list.
Biological target: PDE10A (Homo sapiens (Human))
Test: biochemical
pIC50: −log10 of the molar value.
assayEndpoint: pIC50

Cc1nc2cc(OCc3ccc(F)cc3)ccc2n2c(-c3ccccc3Cl)nnc12	6.93
Cc1nc2cc(Cl)ccc2n2c(-c3cc(OCCCC(F)(F)F)ccc3Cl)nnc12	< 6.00
COc1ccc2c(c1)nc(C)c1nnc(-c3c(F)cccc3F)n12	6.48
Cc1nc2ccccc2n2c(-c3cc(OCCN4CCN(C)CC4)ccc3Cl)nnc12	< 6.00
Cc1nc2ccccc2n2c(-c3cc(OC[C@H](C)O)ccc3Cl)nnc12	< 6.00
CSc1ncccc1-c1nnc2c(C)nc3cc(C(F)(F)F)ccc3n12	< 6.00
Cc1nc2ccccc2n2c(-c3cc(OCC(F)c4ccccn4)ccc3Cl)nnc12 (centres unmarked)	6.02
Cc1nc2cc(C(F)(F)F)ccc2n2c(-c3c(F)cccc3F)nnc12	7.11
Cc1nc2ccccc2n2c(-c3cc(OCC(O)c4ccccn4)ccc3Cl)nnc12 (centres unmarked)	< 6.00
Cc1nc2ccccc2n2c(-c3cc(OC[C@@H](C)O)ccc3Cl)nnc12	< 6.00
COCCOc1ccc(F)c(-c2nnc3cnc4cc(Cl)ccc4n23)c1	< 6.00

---

Molecular target: UniProtKB Q9Y233
Settings: read-out: Inhibition of PDE10A, IC50
pIC50: −log10 of the molar value.
Each record here notes measured pIC50.
assayEndpoint: pIC50

CCCCOc1ccc(Cl)c(-c2nnc3c(C)nc4cc(Cl)ccc4n23)c1	< 6.00
CCCCCCOc1ccc(C)c(-c2nnc3c(C)nc4ccc(Cl)cc4n23)c1	< 6.00
Cc1ccc2nc(C)c3nnc(-c4cc(OCCCC(F)(F)F)ccc4Cl)n3c2c1	< 6.00
Cc1nc2ccccc2n2c(-c3ccccc3F)nnc12	6.46
Cc1nc2cc(C#N)ccc2n2c(-c3cc(OCCCC(F)(F)F)ccc3Cl)nnc12	< 6.00
Cc1nc2ccccc2n2c(-c3cc(OCCN4CCOCC4)ccc3Cl)nnc12	< 6.00
Cc1nc2ccc(Cl)cc2n2c(-c3cc(Cl)ccc3Cl)nnc12	6.88
Cc1nc2ccc(C(F)(F)F)cc2n2c(-c3cccc(Cl)c3Cl)nnc12	6.47

---

Target: PDE10A (Homo sapiens (Human), UniProt Q9Y233)
Sequence (Q9Y233 other isoform, or with tags, fused parts or gaps): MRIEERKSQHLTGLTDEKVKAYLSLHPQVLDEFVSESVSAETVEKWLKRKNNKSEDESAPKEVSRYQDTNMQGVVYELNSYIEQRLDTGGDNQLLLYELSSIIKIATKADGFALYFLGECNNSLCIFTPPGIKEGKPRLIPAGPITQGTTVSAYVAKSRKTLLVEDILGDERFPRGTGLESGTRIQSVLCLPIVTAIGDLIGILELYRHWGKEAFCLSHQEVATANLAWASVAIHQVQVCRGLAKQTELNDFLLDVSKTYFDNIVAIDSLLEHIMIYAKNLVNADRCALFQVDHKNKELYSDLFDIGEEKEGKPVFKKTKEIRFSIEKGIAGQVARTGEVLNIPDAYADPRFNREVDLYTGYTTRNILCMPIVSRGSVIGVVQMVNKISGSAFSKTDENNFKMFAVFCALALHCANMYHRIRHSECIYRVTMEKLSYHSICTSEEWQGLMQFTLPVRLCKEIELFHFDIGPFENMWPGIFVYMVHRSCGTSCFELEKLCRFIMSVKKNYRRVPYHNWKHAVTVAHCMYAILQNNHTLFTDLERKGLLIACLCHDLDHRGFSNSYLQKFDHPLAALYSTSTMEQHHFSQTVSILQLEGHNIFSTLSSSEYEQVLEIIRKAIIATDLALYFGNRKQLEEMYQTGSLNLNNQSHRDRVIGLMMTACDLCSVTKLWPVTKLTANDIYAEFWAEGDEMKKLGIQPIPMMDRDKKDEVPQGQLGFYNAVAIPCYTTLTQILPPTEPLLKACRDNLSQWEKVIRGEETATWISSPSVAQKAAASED
Settings: read-out: Inhibition of PDE10A, IC50
The entries below are paired with their reported log10(IC50).
assayEndpoint: log10(IC50) (log10 of the value in nM)

COc1ccc(Cl)c(-c2nnc3c(C)nc4ccc(F)cc4n23)c1	2.45
COc1ccccc1-c1nnc2c(C)nc3ccc(C(F)(F)F)cc3n12	2.42
Cc1ncccc1-c1nnc2c(C)nc3ccc(F)cc3n12	3.00
COc1ccc2c(c1)nc(C)c1nnc(-c3ccccc3F)n12	2.35
Cc1nc2ccc(OCc3ccc4ccccc4n3)cc2n2c(-c3ccccc3Cl)nnc12	1.00
Cc1nc2ccccc2n2c(-c3cccc(Cl)c3Cl)nnc12	2.56
Cc1nc2cc(O)ccc2n2c(-c3ccccc3Cl)nnc12	2.44
Cc1nc2ccccc2n2c(-c3cc(OCC(C)O)ccc3Cl)nnc12 (stereo not shown)	2.89
Cc1nc2ccc(F)cc2n2c(-c3ccccc3F)nnc12	2.74
Cc1nc2cc(OCc3ccc4ccccc4n3)ccc2n2c(-c3ccccc3Cl)nnc12	0.00
Cc1nc2ccccc2n2c(-c3cc(O)ccc3Cl)nnc12	1.79
Cc1nc2cc(Cl)ccc2n2c(-c3c(F)cccc3F)nnc12	2.01
Cc1nc2ccc(Cl)cc2n2c(-c3cc(O)ccc3Cl)nnc12	1.11
Cc1nc2ccc(Cl)cc2n2c(-c3cc(OCCCO)ccc3Cl)nnc12	2.50
Cc1cnccc1-c1nnc2c(C)nc3ccc(Cl)cc3n12	2.87
Cc1ncccc1-c1nnc2c(C)nc3ccc(Cl)cc3n12	2.58
COc1ccc(CCOc2ccc3c(c2)nc(C)c2nnc(-c4ccccc4Cl)n23)cc1OC	1.68
